# assay.procedure: yeast display, Sf9 membrane polyspecificity reagent, FACS + sequencing; frameworks hold sequencing errors
readout.type: polyreactivity (PSR sort gate)

Examples from the recorded data:
1) QVQLVESGGGLVQAGGSLRLSCAASGRTFGSYAMGWYRQAPGKERELVAAISKGGGSTYYADSVKGRFTISRDNAKNTVYLQMNSLKPEDTAVYYCAKRRFDYYYYGGQGTQVTVSS ... high polyreactivity
2) QVQLVESGGGLVQAGGSLRLICAASGSTLTSNSMGWYRQAPGKERELVASISRRGDSTNYADSVKGRFTISRDNAKNTVYLQMNSLKPEDTAVYYCVAYGYFQSNLWSEFDYWGQGTQVTVSS ... low polyreactivity
3) QVQLVESGGGLVQAGGSLRLSCAASGYIFGDYVMGWYRQAPGKERELVAAISSSGDTNYADSVKGRFTISRDNAKNTVYLQMNSLKPEDTAVYYCAAVDWIGRVHGKPWGGDYWGQGTQVTVSS ... low polyreactivity
4) QVQLVESGGGLVQAGGSLRLSCSASGRNFKYYAMGWYRKAPGKERELVAAITSTGGSTYYADSVKGRFTISRDNGKNTVYLQLNSLKPEDTAVYYCNRDTQYRDRSDNHWGQGTQVTVSS ... high polyreactivity

Next:
input: // lookup polyreactivity (PSR sort gate) for QVQLVESGGGLVQAGGSLRLSCAASGSTFRRYAMGSYRQAPGKERELVAAISVSGGRTSYADSVKGRFTISRDNAKNTVYLQMNSLKPEDTAVYYCNADYYKRMDYWGQGTKVTVSS
output: high polyreactivity

====

# assay.procedure: yeast display, Sf9 membrane polyspecificity reagent, FACS + sequencing; frameworks hold sequencing errors
readout.type: polyreactivity (PSR sort gate)

// below: answered sequences
1) QVQLQESGGGLVQAGGSLRLSCAASGSNSILQSMGWYRQAPGKERELVAGINWGATTYYADSVKGRLTTSRDYAKNSVYLQMNSLKPEDTAVYFCAVPTYYTYPLLYWGQGTQVTVSS ... low polyreactivity
2) QVQLVESGGGLVQAGGSLRLICAASGIILFYAMGWYRQAPGKERELVAAISSGGGTSYADSVKGRFTLSRDNAKKTVYLQMNSLKPEDTAVYYCAKTDGFYRGDGYWGQGTQVNVSS ... low polyreactivity
3) QVQLVESGGGLVQAGGSLRLSCAASGSTFRYNVMGWYRQAPGKERELVATISYSGGSTNYADSVKGRFTISRDNAKNSVYLEIKSLKPVDTAVYYCAARYLYPFYGYWWYDYWGQGTQVTVSS ... high polyreactivity
4) QDQLVESGGGLVQAGGSLRLSCAASGFTYEKYAMGSYRTAPGKERELVASISWSGGRTRYADSVMGRFTISRDNAKNTVYLQMNSLKPEDTAVYYCAARGAYKSAYNRNEYWGQGTQVTVSS ... high polyreactivity

--- query ---
input: What value of polyreactivity (PSR sort gate) has been reported for the following sequence? QVQLVESGGGLVQAGGSLRLSCAASGFIFSRNAMGWYRQAPGKERELVAAISSTGGITYYADSVKGRFTISRDNAKITVYLQMNSLKPEDTAVYYCAAGFYGYARHSWYKYWGQGTQVTVSS
output: high polyreactivity

====

# assay.procedure: yeast display, Sf9 membrane polyspecificity reagent, FACS + sequencing; frameworks hold sequencing errors
readout.type: polyreactivity (PSR sort gate)

1) QVQLVESGGGLVQAGGSLRLSCAASGSIFFYNAMGWYRQAPGKERELVAAITTRGGSTYYADSVKGRFTISRDNAMNTVYLQKNSLKPEDTAVYYCTADYYWTSLAMDSWGQGTQVTVSS ... low polyreactivity
2) QVQLVESGGGLVQAGGSLRLSCAASGSIFGWYVMGWYIQAPGKERELVAAISSVGSTYYADSVKGRFTISRDNAKNTVYLQMKSLKPEDTAVYYCAKLRYPYLFWDDSEYWGQGTQVTVSS ... low polyreactivity

====

# assay.procedure: yeast display, Sf9 membrane polyspecificity reagent, FACS + sequencing; frameworks hold sequencing errors
readout.type: polyreactivity (PSR sort gate)

Worked cases, answers included:
1. QVQLVESGGGLVQAGGSLRLSCAASGRTFWRYTMGWYRQAPGKERELVAAISTNAGTTYYADSVKGRFTISRDNAKNTVYLQMNSLKPEDTAVYYCAARHPGNGYADPTNYYWGQGTQVTVSS ... high polyreactivity
2. QVQLVESGGGLVQAGGSLRLSCAASGRTFPSYTMGWSRQAPGKERELVAAITWTGGSTYYADSVKGRFTISRDNAKNTVYLQMISLKPEDTAVYYCADYDYWGHGTQVTVSS ... low polyreactivity
3. QVQLVESGGGLVQAGGSLRLSCAASGRTLYGNAMGWYRQAPGKEREFVAAITRSGGTTYYADSVKGRFTISRDNAKNTVYLQMNSLKPEDTAVYYCATAFRGYTGLFYWGQGTQVTVSS ... high polyreactivity
4. QVQLVESGGGLVQAGGSLRLSCAASGSIFGYNAMGWSRQAPGKERELVAGITSGTSTYYADSVKGRFTISRDNAKYTVYLQMNSLKPEDTEVYYCARTSYRFYRKRYYWGQGTQVTVSS ... high polyreactivity

input: Given the sequence QVQLVESGGGLVQAGGSLRLSCAASGSIFVYYAMGWYRQAPGKERELVATITNDGSTYADSVKGRFTISRDNAKNTVYLQMNSLKPEDTAVYYCAAKIPSDRTIYDYWGQGTQVTVSS , what is its reported polyreactivity (PSR sort gate)?
output: low polyreactivity

====

# assay.procedure: yeast display, Sf9 membrane polyspecificity reagent, FACS + sequencing; frameworks hold sequencing errors
readout.type: polyreactivity (PSR sort gate)

Recorded polyreactivity (PSR sort gate), per entry:
1. QVQLVESGGGLVQAGGSLRLSCAASGSIFTHNAMGWYRQAPGKERVLVAAISSGGSTNYADSVKGRFTISRDNAKNTVYLQMNSLKPEDTAVYYCAKSIDGWYWRRRRYDYWGQGTQVTVSS ... low polyreactivity
2. QVQLVESGGGLLQAGGSLRLSCAASGFIFRTYAMGWYRQAPGKERELVARISWSGGSTYYADSVKGRFTISRDNAKNTVYLQMNSLITEDTAVYYCARLGTLYESIEYDYWGQGTQVTVSS ... low polyreactivity
3. QVQLVESGGRLGQAGGSLRLRCAASGYNFGTYDMGWYRPAPGKERELVAAISIGGSTNYADSVKGRFTISRDNAKNTVYLQMNSLKPEDTAVYYCAAEVNVGTLLLSVIVEDGDYWGQGTEVTVSS ... low polyreactivity
4. QVQLVESGGGLVQAGGSLRLSCAASGRTFKIYTMGWYRPAPGKERELVAAISRGGSTYYADSVKGRFTISRDNAKNTVYLQMNSLKPEDTAVYYCAVDLYYLSSASTRQVRRDYWGQGTQVTVSS ... high polyreactivity
5. QVQLVESGGGLVQAGGSLRLSCAASGRTSDSYAMGWYRQAPGKERELVAVISRSGRTYYADSVKGRFTISRDNAKNTVYLQMNSLKPEDTAVYYCAAKWFRTWSGYWGQGTQVTVSS ... high polyreactivity

input: polyreactivity (PSR sort gate) lookup needed for QVLLVESGGGLVQAGGSLRLSCAASGSTFFFNAMGSSRQAPGKEWELVATISRDGSTNYADSVKGRFTISRDNAKNTVYLQMNSLKPEDTAVYYCAAGWGWPYHQYDYWGQGTQVTVSS , thanks.
output: low polyreactivity

input: Entry QVQLVESGGGLVQAGGSLRLSCAASGSIFYFNAMGWYRQAPGKERELVAGISARGGSTYYADSVKGRFTISRDNAKNTVYLQMNSLKPEDTAVYYCAAYGTTRSRKRGFAWWGYDYWGQGTQVTVSS has what polyreactivity (PSR sort gate)?
output: low polyreactivity

input: // query polyreactivity (PSR sort gate) value for entry QDQLVESWGALVQAGGRLRLICAASGTIFSRNTMRSYRQAPGKDRELVAGISSSGSRTYYADSVKGRFTISRDNAKNTVYLQMNSLKPEDNAVYYCAAEHQRSRGRRYYIGYDYWGQGTQVTVSS
output: low polyreactivity

input: I am curious: what polyreactivity (PSR sort gate) value has been reported for QVQHVESGGGLVQAGGSLRLSCAASGIIFSEYAMGWYRLAPGKERELVAVISRSGGRTYYADSVKGRFTISRDNAKNTVYFQMNSLKPEDTAVYYCAVVHKTFTGDYWGQGTQVTVSS ?
output: high polyreactivity

input: Fill blank: measured polyreactivity (PSR sort gate) of the sequence QVQLVESGGGLVQAGGSLRLSCAASGSIFEWYAMGWYRQAPGKVRELVADITYNGGSTYYADSVKGRFTISRDNAKNTVYLQMNSLKPEDTAVYYCAADYFVQVPDYYYASEYGYWGQGTQVTVSS is ____.
output: low polyreactivity

input: Which value of polyreactivity (PSR sort gate) has been reported for QVQLVESGGGLVQAVGSLRLSCAASGFIFVGYAMGWYRQAPGKERELVAAITGGGTTYYADSVKGRFTISRDNAKNSVYLQMNSLKPEETAVYYCAKDRPRKDTQRWRYGHWGQGTQVTVSS in the records?
output: high polyreactivity

Where these numbers come from: the nanobody polyreactivity screen of Harvey et al. (2022)
